# Tested on: MS2 coat protein
# ASSAY_PROCEDURE: apparent KD of MS2 coat protein; designed switch direction (-1 OFF switch, 1 ON switch): -1; higher = weaker reporter binding
# CONDITION_INFO: Eterna round: R98; input ligand: none
READOUT_TYPE: apparent KD of MS2 coat protein (nM)
Just the number in nM, nothing appended.

Task: What apparent KD of MS2 coat protein value was documented for this sequence, AUGACAGGCAGAGCGCAACGGCGUACAUGAGGAUCACCCAUGUAGGAUAUACUACACAAAGUGUAGUAGAAGGACAUGCGACGC [Ex NG2 #87] ?
Result: 23.2

Task: Next sequence: UGUUGUUACGCAGGAUAUUGCCAACAGGCAGUAGGAUAUCCGAAAGGAGAAGGAUCGCCAACAGGCGAGAAGGGCGGGUUAACA [pwkr exNG2 2xF7 2FMN.10.2]
Result: 706

Task: Now give it for CCUUUAAAGAUCCAAAAUUACAACAUGAGGAUCACCCAUGUGCAGGAUAUCGUGCCAGUGAUGUACGAGAAGGGCAGACUCUGC [salish99_ExNG3_r2_015] too.
Result: 105
